- protocol text: Serum and tumor levels after multiple oral doses in male OCI-LY3 tumor-bearing NSG mice
- Assay type: in vivo
- applied conditions: male, NSG, mouse, serum, po, once daily PO, dose not given (first group), Day 4, 12 h post dose; mean (SD); read-out: Serum concentration
measured endpoint: concentration at 12 h (ng/mL)

1. O=C(Nc1ccnc(C(F)(F)F)c1)c1cnn(-c2cccc3c(=O)[nH]ccc23)c1C(F)(F)F = 8680

---

- protocol text: Single oral dose plasma PK in fasted dogs
- Type: in vivo, dog
- applied conditions: female, beagle, dog, plasma, po, 280 mg/kg, 2F, 280 mg/kg PO, 100% PEG400 solution, Study 7
measured endpoint: AUC(0-inf) (µg·h/mL)

1) O=C(Nc1ccnc(C(F)(F)F)c1)c1cnn(-c2cccc3c(=O)[nH]ccc23)c1C(F)(F)F = 1680
